Test Details: Human HepG2 cell viability assay in 384 well format
Type: toxicity, cell-based
Set-up: dose 125 nL, time 70.5 hour; concentration not given beside the values
Details: HepG2 cells, read-out: Inhibition

Compound | cytotoxicity at 70.5 h / %
CCCC(C(=O)NC1CCN(S(C)(=O)=O)CC1)n1cccc1 (configuration not stated) | -3.64
Cc1ccc(CN2CCN(c3nc4c(s3)c(C)nn4C)C(C)C2=O)cc1 (configuration not stated) | 31.2
NC(=O)C1CCN(S(=O)(=O)c2cnn(-c3ccccc3)c2)CC1 | -4.05
Cc1cccc2nc(CN3CCCC3Cn3cccn3)cn12 (configuration not stated) | -10.8
CCc1nc(CC(=O)NC(C#N)CC)cs1 (configuration not stated) | -0.988
CCC(=O)N1CCC2(COCc3cnc(NCc4ccco4)nc32)C1 (configuration not stated) | 0.523
Cc1noc(C)c1CNC(=O)c1ccc(NC2CC2)nc1 | 5.69
COCCN1C(=O)CO[C@H]2CN(Cc3ccccc3Cl)C[C@@H]21 | -9.25
Cc1cnn(CCNCC(=O)N2CCN(c3ncccn3)CC2)c1 | -4.23
O=C(c1cccc2cn[nH]c12)N1CCCC1c1noc(C2CC2)n1 (configuration not stated) | -2.84
Cc1nccn1-c1cccc(C2CCCN2)n1 (configuration not stated) | -13.4
CC(C)c1nc(C2CCCN2CC(=O)Nc2cccnc2)no1 (configuration not stated) | -14

###

Test Details: Human HepG2 cell viability assay in 384 well format
Type: toxicity, cell-based
Parameters: dose 125 nL, time 70.5 hour; concentration not given beside the values
Details: HepG2 cells, read-out: Inhibition

Compound | cytotoxicity at 70.5 h (%)
COc1ccc(C(C)CCNC2CCN(c3ccccn3)CC2)cc1 (stereo unspecified) | 22
Cc1cc(C(=O)N2CCCC(C(=O)c3cccs3)C2)c(=O)[nH]c1C (stereo unspecified) | 17.8
Cc1nc(CN2C[C@@H]3CN(C(=O)CC(F)(F)F)C[C@@H]3C2=O)cs1 | -9.18
O=C(NC[C@H]1COCc2nc3cc(F)ccc3n21)c1cccnc1 | -2.79
O=C(O)[C@@H]1CN(C2CCCCC2)C[C@H]1C1CC1 | -13.9
CCSc1nsc(NC(=O)COc2ccc3c(c2)OCO3)n1 | -8.05

###

cytotoxicity at 70.5 h: recorded values
Test Details: Human HepG2 cell viability assay in 384 well format
Type: toxicity, cell-based
Parameters: dose 125 nL, time 70.5 hour; concentration not given beside the values
Details: HepG2 cells, read-out: Inhibition

Compound | Measure Unit | cytotoxicity at 70.5 h
O=C(NCC(F)F)c1cc(-c2ccccc2)nc2ncnn12 | % | -1.07
CN(C)Cc1ccc(NC(=O)c2nccn3ccnc23)cc1 | % | -4.61
O=S(=O)(c1ccccc1)N1C[C@@H]2CCN[C@@H]2C1 | % | -7.19
Cc1n[nH]c(C2CN(C(=O)CCc3ccco3)CCO2)n1 (centres undefined) | % | 9.82
CCOCCCNc1nc2c(s1)c(C)nn2C | % | -5.29
CS(=O)(=O)c1nccn1Cc1ccc(Cl)cc1 | % | -5.04
COc1ccc2c(c1)CC(C1CCOCC1)N(C(=O)c1ccn(C)n1)C2 (centres undefined) | % | 2.06
CCc1nc(N2CCCC(CCCOC)C2)c2cnn(C)c2n1 (centres undefined) | % | -5.41
Cc1ccc(NC(=O)Cn2cc(I)cn2)cc1C | % | 20.3
CN(CC1COc2ccccc2O1)C(=O)NCCCn1ccnc1 (centres undefined) | % | 33.9
CCn1c(N)nc2cc(C(=O)NCc3cccc(C)c3C)cnc21 | % | 17.1
CCCS(=O)(=O)CCSc1cccc(C#N)c1 | % | -11.2
COc1ccc(COCC(=O)N2CCN(CC(C)(C)O)CC2)cc1 | % | -0.338
NC(=O)C1(c2cnccn2)CCCN1Cc1cccc(Cl)c1 (centres undefined) | % | -2.75
CC(=O)NCCn1ccnc1-c1cccc(C(C)N(C)C)c1 (centres undefined) | % | 5.57
CS(=O)(=O)c1ccc(C(=O)N2CCCC(n3cncn3)C2)o1 (centres undefined) | % | 21.1
N#Cc1ccc(OC[C@]23COC[C@H]2CN(c2ncccn2)C3)nc1 | % | -7.98
CCS(=O)(=O)c1ccc(N2CCC(NC(=O)CC3CCCC3)CC2)cc1 | % | -9.91
CS(=O)(=O)NCCC1CCCCN1C(=O)NCCc1ccccc1 (centres undefined) | % | 17.9
Cn1cc(C(=O)NC2CCCC2)c(-c2cccnc2)n1 | % | -10.4
Cc1ccc(C(=O)N2CC[C@H](N3CCOCC3)[C@H](CCCO)C2)cc1O | % | -8.22
Cc1nn(C)c(C)c1NC(=O)c1cccc(CN2CCS(=O)(=O)CC2)c1 | % | -6.09
Cc1noc([C@H]2C[C@@H]3CCN(CC4CC4)C[C@H]3O2)n1 | % | -7.86
COC(=O)c1cccc(S(=O)(=O)NC(=O)COC2CCCCC2)c1 | % | -3.15

###

Test Details: Human HepG2 cell viability assay in 384 well format
Type: toxicity, cell-based
Design: dose 125 nL, time 70.5 hour; concentration not given beside the values
Details: HepG2 cells, read-out: Inhibition

Compound | Measure Unit | cytotoxicity at 70.5 h
Cc1c(C(=O)N(C)CC(C)O)sc2nc(C(F)(F)F)ccc12 (stereo unspecified) | % | -9.55
CNC(=O)c1cccc(CNC2CCCSc3ccccc32)c1 (stereo unspecified) | % | -5.82
Cc1nc(Nc2ccccn2)cc(C2CCCN2Cc2ncc[nH]2)n1 (stereo unspecified) | % | -6.09
Cn1cc(CN2CCC3(C2)CN(Cc2ccsc2)C3)cn1 | % | -6.34
c1cnn(CC2CN(CC3CCCCC3)CCO2)c1 (stereo unspecified) | % | -0.377
COCCNC(=O)[C@@H]1C[C@H]2[C@H](CCN2c2cc(OC)ncn2)O1 | % | -10.5

###

Test Details: Human HepG2 cell viability assay in 384 well format
Format: toxicity, cell-based
Set-up: dose 125 nL, time 70.5 hour; concentration not given beside the values
Details: HepG2 cells, read-out: Inhibition
cytotoxicity at 70.5 h: recorded values

Compound | cytotoxicity at 70.5 h [%]
Cc1ccnc(C2CCN(CCCOc3ccccc3F)C2)n1 (stereo unspecified) | -1.63
Cc1cc(S(=O)(=O)NCC[S+](C)[O-])c(F)cc1F (stereo unspecified) | -2.05
O=C1CCC2(CCN(CC[C@@H](O)c3ccccc3)CC2)CN1CC1CC1 | -5.97
CN(C)c1nc(NCc2ccccc2Cn2cccn2)ncc1F | 5.75
CCC(CO)N(Cc1cccnc1)C(=O)c1ccc(C(F)(F)F)nc1O (stereo unspecified) | -18.7
Cc1nc(CN(CCS(C)(=O)=O)C(C)C)cs1 | -8.28
CC(NC(=O)COc1ccc(Cl)cc1Cl)c1nncn1C(C)C (stereo unspecified) | -3.07
CC(=O)N1CCCC2(CCN(Cc3ccc(Cl)c(F)c3)C2)C1 (stereo unspecified) | -3.79
O=C([C@H]1C[C@@H]2CN(c3ncc(F)cn3)C[C@H]1O2)N1CCCC1 | -9.42
CCOc1ccc(NC(=O)C2OC(c3cccs3)=NN2C(C)=O)cc1 (stereo unspecified) | 11.5
Cc1nc(Nc2ccc(Cl)cn2)sc1C(=O)NCCCN1CCCCC1 | -3.37

###

Test Details: Human HepG2 cell viability assay in 384 well format
Type: toxicity, cell-based
Design: dose 125 nL, time 70.5 hour; concentration not given beside the values
Details: HepG2 cells, read-out: Inhibition

Molecule | Measure Unit | cytotoxicity at 70.5 h
CC(C)NC(=O)N1CCCC2(CC(C(=O)Nc3ccccc3)=NO2)C1 (stereo unspecified) | % | 16.9
O=C(CCNC(=O)c1ccoc1)Nc1c(F)cccc1F | % | -1.23
Cn1nc(C(=O)NCc2ccccn2)c2c1CCS(=O)(=O)C2 | % | 88.4
Cc1nn(CCO)c(C)c1CNCc1cccnc1N(C)C | % | -4.11
NC(=O)C1CCCN(C(=O)c2ccn(-c3ccc(F)cc3)n2)C1 (stereo unspecified) | % | -5.61
COc1nccc(N2CC[C@@H](N3CCC(O)CC3)[C@H](O)C2)c1C#N | % | 5.37

###

Test Details: Human HepG2 cell viability assay in 384 well format
Type: toxicity, cell-based
Design: dose 125 nL, time 70.5 hour; concentration not given beside the values
Details: HepG2 cells, read-out: Inhibition

Compound | cytotoxicity at 70.5 h [%]
N#Cc1cccc(CN(CCO)Cc2ccsc2)c1 | -20.4
c1ccc(C(CC2CN(Cc3ncc[nH]3)CCO2)c2ccccc2)cc1 (centres undefined) | 0.214
CC(C)NC(=O)N1CC[C@@H](N(C)C)[C@@H]1Cc1ccccc1 | -10.3
Cc1c(S(=O)(=O)NC2CC2)cc2c(C)cc(=O)n3c2c1CCC3 | 0.953
CCN1CCNC(=O)C12CCN(C(=O)Cc1ccsc1)CC2 | 2.23
O=C(CC1CCCC1)NCCS(=O)(=O)N1CCN(c2ncccn2)CC1 | -11
Cc1ccccc1C1(C(=O)NCCN2CCCC2)CCOCC1 | -13.9
Cc1nc(-c2ccccc2)sc1CNC(=O)c1ccc(=O)n(C)c1 | -3.22
Cc1ncsc1CCC(=O)NCc1cc2n(n1)CCN(C(=O)N(C)C)C2 | 13.9
CC(=O)c1nn(-c2ccccc2)c(C)c1C(C)=O | -8.03
Cc1nnc(CCNC2CCN(c3ncnc4c(C)csc34)CC2)s1 | -2.85
CN(C)CCN(Cc1cccc(F)c1)C(=O)c1ccc2nccn2c1 | -43.4
Cc1cc(C[C@@H]2COC[C@@H]2NC(=O)CCN2Cc3ccccc3C2)on1 | 11.4
CC(=O)N1CCCC(Cc2cnc(-n3ccnc3)cn2)C1 (centres undefined) | -5.34
Cc1cccc2c1OCCCC2NCc1nccn1Cc1ccccc1 (centres undefined) | -5.77
O=C(CN(Cc1cccc(F)c1)CC1CCCO1)N1CCCC1 (centres undefined) | 13.7
COc1ccccc1OCCCN1CC=C(c2cnn(C)c2)CC1 | -2.62
NC(=O)c1ccc(-n2ccnc2-c2cccc(O)c2)cc1N1CCCC1 | -6.04
O=S(=O)(c1cc2ccccc2o1)N1CCCC1 | 4.69
COCCCN(C)C(=O)c1nnn(-c2ccccc2Cl)c1C | 1.5
COCCc1noc(CN2CCCC(Cn3nc(C)nc3C)C2)n1 (centres undefined) | 2.6
COCc1nc(CNC2CCN(C(C)C)CC2)no1 | -8.15
Cc1ccc(Nc2c(C#N)c(=O)n(C)c(=O)n2C)cc1F | -4.93
CN1CCN(C)c2cc(NC(=O)c3cc[nH]n3)ccc2C1 | 6.77
